- Study target: WT NS1-RBD (Influenza A virus A/Udorn/307/1972 …, UniProt P03495 1-73)
- Sequence (P03495 1-73): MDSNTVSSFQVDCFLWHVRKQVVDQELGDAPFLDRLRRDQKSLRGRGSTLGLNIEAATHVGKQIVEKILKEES
- Assay: fluorescence anisotropy
Reported endpoint: Kd (nM)
Express the result in nM but write the number alone.

**Q:** Given the binder dsRK1 (dsRNA) RNA 1: CCAUCCUCUACAGGCG RNA 2: CGCCUGUAGAGGAUGG , what is its reported Kd?
**A:** 76
